test: Solubility of dendrimers; conditions: at 20 mg/mL
measure: Solubility

COC(=O)CCCNC(=O)C(C(C)C)N(CCNC(=O)CCN(CCC(=O)NCCN(C(=O)CCCc1ccc(N(CCCl)CCCl)cc1)C(C(=O)NCCCC(=O)OC)C(C)C)CCN(CCC(=O)NCCN(C(=O)CCCc1ccc(N(CCCl)CCCl)cc1)C(C(=O)NCCCC(=O)OC)C(C)C)CCC(=O)NCCN(C(=O)CCCc1ccc(N(CCCl)CCCl)cc1)C(C(=O)NCCCC(=O)OC)C(C)C)C(=O)CCCc1ccc(N(CCCl)CCCl)cc1 (stereo not shown); Low
CC(C)C(C(=O)NCCCC(=O)O)N(CCNC(=O)CCN(CCC(=O)NCCN(C(=O)CCCC[C@@H]1SC[C@@H]2NC(=O)N[C@@H]21)C(C(=O)NCCCC(=O)O)C(C)C)CCN(CCC(=O)NCCN(C(=O)CCCC[C@@H]1SC[C@@H]2NC(=O)N[C@@H]21)C(C(=O)NCCCC(=O)O)C(C)C)CCC(=O)NCCN(C(=O)CCCc1ccc(N(CCCl)CCCl)cc1)C(C(=O)NCCCC(=O)O)C(C)C)C(=O)CCCC[C@@H]1SC[C@@H]2NC(=O)N[C@@H]21 (stereo partly shown); High
CC(C)C(C(=O)NCCCC(=O)O)N(CCNC(=O)CCN(CCC(=O)NCCN(C(=O)CCCc1ccc(N(CCCl)CCCl)cc1)C(C(=O)NCCCC(=O)O)C(C)C)CCN(CCC(=O)NCCN(C(=O)CCCc1ccc(N(CCCl)CCCl)cc1)C(C(=O)NCCCC(=O)O)C(C)C)CCC(=O)NCCN(C(=O)CCCc1ccc(N(CCCl)CCCl)cc1)C(C(=O)NCCCC(=O)O)C(C)C)C(=O)CCCC[C@@H]1SC[C@@H]2NC(=O)N[C@@H]21 (stereo partly shown); High
COC(=O)CCCNC(=O)C(C(C)C)N(CCNC(=O)CCN(CCC(=O)NCCN(C(=O)CCCC[C@@H]1SC[C@@H]2NC(=O)N[C@@H]21)C(C(=O)NCCCC(=O)OC)C(C)C)CCN(CCC(=O)NCCN(C(=O)CCCC[C@@H]1SC[C@@H]2NC(=O)N[C@@H]21)C(C(=O)NCCCC(=O)OC)C(C)C)CCC(=O)NCCN(C(=O)CCCc1ccc(N(CCCl)CCCl)cc1)C(C(=O)NCCCC(=O)OC)C(C)C)C(=O)CCCC[C@@H]1SC[C@@H]2NC(=O)N[C@@H]21 (stereo partly shown); Low

* * *

assay: Solubility of dendrimers; conditions: at 20 mg/mL
measure: Solubility

CC(C)C(C(=O)NCCOCCOCCNC(=O)OC(C)(C)C)N(CCNC(=O)CCN(CCC(=O)NCCN(C(=O)CCCc1ccc(N(CCCl)CCCl)cc1)C(C(=O)NCCOCCOCCNC(=O)OC(C)(C)C)C(C)C)CCN(CCC(=O)NCCN(C(=O)CCCc1ccc(N(CCCl)CCCl)cc1)C(C(=O)NCCOCCOCCNC(=O)OC(C)(C)C)C(C)C)CCC(=O)NCCN(C(=O)CCCc1ccc(N(CCCl)CCCl)cc1)C(C(=O)NCCOCCOCCNC(=O)OC(C)(C)C)C(C)C)C(=O)CCCc1ccc(N(CCCl)CCCl)cc1 (stereo not drawn); Low
CC(C)C(C(=O)NCCOCCOCCN)N(CCNC(=O)CCN(CCC(=O)NCCN(C(=O)CCCc1ccc(N(CCCl)CCCl)cc1)C(C(=O)NCCOCCOCCN)C(C)C)CCN(CCC(=O)NCCN(C(=O)CCCc1ccc(N(CCCl)CCCl)cc1)C(C(=O)NCCOCCOCCN)C(C)C)CCC(=O)NCCN(C(=O)CCCc1ccc(N(CCCl)CCCl)cc1)C(C(=O)NCCOCCOCCN)C(C)C)C(=O)CCCc1ccc(N(CCCl)CCCl)cc1 (stereo not drawn); High
COC(=O)CCCNC(=O)C(C(C)C)N(CCNC(=O)CCN(CCC(=O)NCCN(C(=O)CCCc1ccc(N(CCCl)CCCl)cc1)C(C(=O)NCCCC(=O)OC)C(C)C)CCN(CCC(=O)NCCN(C(=O)CCCc1ccc(N(CCCl)CCCl)cc1)C(C(=O)NCCCC(=O)OC)C(C)C)CCC(=O)NCCN(C(=O)CCCc1ccc(N(CCCl)CCCl)cc1)C(C(=O)NCCCC(=O)OC)C(C)C)C(=O)CCCC[C@@H]1SC[C@@H]2NC(=O)N[C@@H]21 (stereo partly drawn); Low
